Target: IDO1 in Hela cells stimulated with IFNγ (Homo sapiens (Human))
Assay: IDO1 Cellular Assay in Hela Cells Stimulated with IFNγ
Type: cell-based
Conditions: IFNγ 100 ng/mL, about 48 hours, fluorescence readout, read-out: IDO1 HELA Cell Assay, IC50
measurement.name: pIC50
In plain terms, pIC50 is the concentration in mol/L turned into minus its base-10 logarithm.

These solved cases illustrate the format of a correct answer.
[[record]]
molecule = "NS(=O)(=O)N[C@H]1C[C@@H](Oc2nonc2/C(=N/O)N[C@H]2Cc3ccc(F)cc32)C1 [Example 43]"
measurement_name = "pIC50"
test_value = 7.34

[[record]]
molecule = "O=C(c1nc[nH]n1)N1CC(Oc2nonc2/C(=N/O)N[C@H]2Cc3ccc(F)cc32)C1 [Example 30]"
measurement_name = "pIC50"
test_value = 7.18

[[record]]
molecule = "O=C(COc1nonc1/C(=N/O)N[C@H]1CCc2ccc(F)cc21)NCCO [Example 13]"
measurement_name = "pIC50"
test_value = 6.11


Attention now turns to another entry.
Given item C[C@@H](CO)NC(=O)COc1nonc1/C(=N/O)N[C@H]1Cc2ccc(F)cc21 [Example 7] , the value recorded as its pIC50 is 7.05

###

Target: HIS-tagged IDO1 protein (Homo sapiens (Human), UniProt P14902)
Sequence (P14902 whole entry): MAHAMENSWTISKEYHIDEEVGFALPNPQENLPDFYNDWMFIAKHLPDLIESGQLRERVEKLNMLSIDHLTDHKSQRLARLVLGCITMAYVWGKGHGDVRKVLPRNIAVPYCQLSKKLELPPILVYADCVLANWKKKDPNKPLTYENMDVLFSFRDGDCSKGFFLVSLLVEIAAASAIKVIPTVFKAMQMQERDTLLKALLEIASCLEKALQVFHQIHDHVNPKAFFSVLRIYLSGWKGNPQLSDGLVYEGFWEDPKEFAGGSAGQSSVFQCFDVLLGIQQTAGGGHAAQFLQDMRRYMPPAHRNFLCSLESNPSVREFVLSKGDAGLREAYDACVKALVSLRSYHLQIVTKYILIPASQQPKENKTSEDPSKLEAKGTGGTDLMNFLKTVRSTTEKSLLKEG
Test: IDO1 Enzyme Assay
Settings: recombinant IDO1 40 nM, tryptophan substrate, fluorescence readout
Description: Biological Assays IDO1 Enzyme Assay Compounds to be tested were serially diluted in ten 3-fold steps in DMSO starting from 10 mM DMSO stocks. […] HIS-tagged IDO1 protein was recombinantly expressed in Escherichia coli using ZYP5052 autoinduction media supplemented with 500 μM delta aminolevulinic acid for 48 hours at 16 degrees Celsius. […] The resulting fluorescence was measured in an Envision plate reader (Perkin Elmer) with a 400/25 nm excitation filter and an 510/20 nm emission filter. […]
pIC50: −log10 of the molar value.
Our labelling divides records by pIC50 into ranges: category 1 (below 6), category 2 (6 to below 7), category 3 (7 or more)

Reference set (2 entries):
[[record]]
molecule = "NS(=O)(=O)N1CC(Oc2nonc2/C(=N/O)N[C@H]2Cc3ccc(F)cc32)C1"
label_class = "category 3"

[[record]]
molecule = "NC(=O)N1CC(Oc2nonc2/C(=N/O)N[C@H]2Cc3ccc(F)cc32)C1"
label_class = "category 3"


## Input Which bin, given its pIC50, does O=C(NCCOc1nonc1/C(=N/O)N[C@H]1Cc2ccc(F)cc21)[C@@H](O)CO occupy?
## Output category 2

## Input Which bin, given its pIC50, does O=C(NCCOc1nonc1/C(=N/O)N[C@H]1Cc2ccc(F)cc21)[C@H](O)CO occupy?
## Output category 2

## Input Which bin, given its pIC50, does O=C(c1nc[nH]n1)N1CC(Oc2nonc2/C(=N/O)N[C@H]2Cc3ccc(F)cc32)C1 occupy?
## Output category 3

## Input Which bin, given its pIC50, does O/N=C(\N[C@H]1Cc2ccc(F)cc21)c1nonc1OC1CNC1 occupy?
## Output category 2

###

Biological target: IDO1 in human whole blood stimulated with LPS and IFNγ (Homo sapiens (Human))
Sequence (P14902 whole entry): as above
Experiment: IDO1 Human Whole Blood Assay
Format: cell-based
Conditions: LPS and IFNγ 100 ng/mL, 18 h, kynurenine by LC/MS/MS
Label Y for high-side IDO1 human whole blood assay, IC50 (at or above 700 nM) and N for low-side IDO1 human whole blood assay, IC50 (below it).

[[record]]
compound = "O=C(CO)N[C@H]1C[C@@H](Oc2nonc2/C(=N/O)N[C@H]2Cc3ccc(F)cc32)C1"
label_class = "N"

[[record]]
compound = "O=C(CO)N1CC(Oc2nonc2/C(=N/O)N[C@H]2Cc3ccc(F)cc32)C1"
label_class = "N"

[[record]]
compound = "C[C@@H](CO)NC(=O)COc1nonc1/C(=N/O)N[C@H]1Cc2ccc(F)cc21"
label_class = "Y"

[[record]]
compound = "O=C(CO)N[C@H]1C[C@H](Oc2nonc2/C(=N/O)N[C@H]2Cc3ccc(F)cc32)C1"
label_class = "N"

[[record]]
compound = "O=C(COc1nonc1/C(=N/O)N[C@H]1Cc2ccc(F)cc21)NCCO"
label_class = "Y"


## Input Tell me whether IDO1 human whole blood assay, IC50 is at least 700 nM here: CS(=O)(=O)NCCOc1nonc1/C(=N/O)N[C@H]1Cc2ccc(F)cc21
## Output N

## Input Tell me whether IDO1 human whole blood assay, IC50 is at least 700 nM here: O=C(c1nc[nH]n1)N1CC(Oc2nonc2/C(=N/O)N[C@H]2Cc3ccc(F)cc32)C1
## Output N

## Input Tell me whether IDO1 human whole blood assay, IC50 is at least 700 nM here: CCC(=O)NCCOc1nonc1/C(=N/O)N[C@H]1Cc2ccc(F)cc21
## Output N

## Input Tell me whether IDO1 human whole blood assay, IC50 is at least 700 nM here: CC(=O)NCCOc1nonc1/C(=N/O)N[C@H]1Cc2ccc(F)cc21
## Output N

## Input Tell me whether IDO1 human whole blood assay, IC50 is at least 700 nM here: O=C(N1CC(Oc2nonc2/C(=N/O)N[C@H]2Cc3ccc(F)cc32)C1)C1(O)CC1
## Output N

## Input Tell me whether IDO1 human whole blood assay, IC50 is at least 700 nM here: NC(=O)N[C@H]1C[C@@H](Oc2nonc2/C(=N/O)N[C@H]2Cc3ccc(F)cc32)C1
## Output N

## Input Tell me whether IDO1 human whole blood assay, IC50 is at least 700 nM here: NC(=O)NCCOc1nonc1/C(=N/O)NC1Cc2ccc(F)cc21 (stereo not drawn)
## Output N

## Input Tell me whether IDO1 human whole blood assay, IC50 is at least 700 nM here: NS(=O)(=O)NCCOc1nonc1/C(=N/O)N[C@H]1Cc2ccc(F)cc21
## Output N

## Input Tell me whether IDO1 human whole blood assay, IC50 is at least 700 nM here: NS(=O)(=O)N[C@H]1C[C@@H](Oc2nonc2/C(=N/O)N[C@H]2Cc3ccc(F)cc32)C1
## Output Y

## Input Tell me whether IDO1 human whole blood assay, IC50 is at least 700 nM here: NC(=O)N[C@H]1C[C@H](Oc2nonc2/C(=N/O)N[C@H]2Cc3ccc(F)cc32)C1
## Output Y

## Input Tell me whether IDO1 human whole blood assay, IC50 is at least 700 nM here: CC(=O)N[C@H]1C[C@@H](Oc2nonc2/C(=N/O)N[C@H]2Cc3ccc(F)cc32)C1
## Output N

## Input Tell me whether IDO1 human whole blood assay, IC50 is at least 700 nM here: C[C@H](O)C(=O)N1CC(Oc2nonc2/C(=N/O)N[C@H]2Cc3ccc(F)cc32)C1
## Output N
